Every entry's value here was drawn from patent US20150087627A1.

Documented IC50 across a set of compounds
# ASSAY_TARGET: PI3K δ (Homo sapiens)
# Construct: purchased Upstate / Millipore Corporation
# Sequence (O00329 whole entry): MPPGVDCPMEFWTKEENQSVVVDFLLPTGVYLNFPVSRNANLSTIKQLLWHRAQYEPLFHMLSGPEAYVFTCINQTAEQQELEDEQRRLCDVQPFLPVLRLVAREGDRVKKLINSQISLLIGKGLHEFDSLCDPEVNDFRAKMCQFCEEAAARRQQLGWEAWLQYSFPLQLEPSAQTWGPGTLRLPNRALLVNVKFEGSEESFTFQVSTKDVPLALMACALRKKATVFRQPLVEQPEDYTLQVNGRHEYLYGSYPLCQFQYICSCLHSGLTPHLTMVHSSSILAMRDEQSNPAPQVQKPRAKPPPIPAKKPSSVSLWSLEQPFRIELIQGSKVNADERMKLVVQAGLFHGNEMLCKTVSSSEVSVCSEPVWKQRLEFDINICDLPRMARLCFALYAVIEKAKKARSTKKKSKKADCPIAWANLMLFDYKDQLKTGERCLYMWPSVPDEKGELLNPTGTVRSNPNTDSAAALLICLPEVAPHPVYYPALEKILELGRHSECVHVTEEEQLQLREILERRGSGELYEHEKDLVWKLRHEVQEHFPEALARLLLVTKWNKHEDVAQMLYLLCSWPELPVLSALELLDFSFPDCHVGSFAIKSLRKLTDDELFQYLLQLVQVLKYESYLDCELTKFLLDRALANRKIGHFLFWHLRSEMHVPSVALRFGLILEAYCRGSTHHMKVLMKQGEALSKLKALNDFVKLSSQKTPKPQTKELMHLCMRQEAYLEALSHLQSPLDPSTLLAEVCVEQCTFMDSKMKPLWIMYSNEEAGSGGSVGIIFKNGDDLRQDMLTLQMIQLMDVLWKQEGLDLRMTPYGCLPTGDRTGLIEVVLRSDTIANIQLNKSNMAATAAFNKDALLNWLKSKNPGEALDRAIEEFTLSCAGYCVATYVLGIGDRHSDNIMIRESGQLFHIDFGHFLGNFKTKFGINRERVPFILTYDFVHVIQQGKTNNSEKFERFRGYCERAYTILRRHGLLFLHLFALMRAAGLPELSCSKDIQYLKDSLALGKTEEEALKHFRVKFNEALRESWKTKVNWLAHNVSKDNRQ
# Sequence (P27986 whole entry partner): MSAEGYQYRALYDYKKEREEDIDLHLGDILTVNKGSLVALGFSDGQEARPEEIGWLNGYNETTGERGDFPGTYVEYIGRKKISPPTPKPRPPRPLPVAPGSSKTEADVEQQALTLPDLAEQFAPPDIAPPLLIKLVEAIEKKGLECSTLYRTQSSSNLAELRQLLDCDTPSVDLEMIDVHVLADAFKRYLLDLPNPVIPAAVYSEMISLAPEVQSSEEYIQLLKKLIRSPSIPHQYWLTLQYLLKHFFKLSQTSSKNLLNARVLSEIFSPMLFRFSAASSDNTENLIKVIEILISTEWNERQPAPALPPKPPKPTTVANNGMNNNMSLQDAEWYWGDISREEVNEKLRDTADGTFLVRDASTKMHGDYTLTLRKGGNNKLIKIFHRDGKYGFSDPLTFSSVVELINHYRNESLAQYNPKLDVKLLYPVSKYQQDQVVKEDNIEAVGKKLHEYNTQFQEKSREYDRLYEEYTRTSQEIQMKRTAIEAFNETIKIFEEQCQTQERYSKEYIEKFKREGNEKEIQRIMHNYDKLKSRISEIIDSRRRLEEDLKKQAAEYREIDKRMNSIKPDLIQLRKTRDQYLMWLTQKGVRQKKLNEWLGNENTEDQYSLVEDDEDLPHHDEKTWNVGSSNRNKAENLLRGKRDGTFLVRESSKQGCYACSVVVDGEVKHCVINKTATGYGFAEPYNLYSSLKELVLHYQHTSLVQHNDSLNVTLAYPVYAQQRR
# TEST_DETAILS: PI 3-Kinase (human) HTRF assay, PI3K δ
# Format: biochemical
# EXPERIMENTAL_PARAMETERS: Table 4 (PI3K α inhibitors); read-out: PI3K δ IC50

Examples with their reported IC50 follow.
Nc1nc2cc(-c3ccc4ncc(N5CCC(O)CC5)nc4n3)ccc2o1
> 10 µM
C[C@@H]1COCCN1C1CN(c2cnc3ccc(-c4ccc5oc(N)nc5c4)nc3c2)C1
< 1 µM
C[C@@H]1CN(C2CN(c3cnc4ccc(-c5ccc6oc(N)nc6c5)nc4c3)C2)CCN1C
< 1 µM

For CCOC(=O)N1CCN(c2cnc3ccc(-c4ccc5oc(N)nc5c4)nc3c2)CC1 , write its IC50.
> 10 µM

For CC1(C)CN(C2CN(c3cnc4ccc(-c5ccc6oc(N)nc6c5)nc4c3)C2)CCN1 , write its IC50.
< 1 µM
